B1: ZBED2 (parent)
chain: RAGHHPNQYATCRLCGRQVSRGPG

Variants of: B1
METHOD_SUMMARY: protein stability index of a GFP-peptide fusion (GPS, HEK-293T) (PSI 1-6); higher = more stable;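 further: lentivirally expressed fusions sorted by FACS into six bins by GFP to DsRed ratio, PSI derived from sequencing read proportions per bin multiplied by bin number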
TEST_CONDITIONS: c terminus: a fixed tail appended
MEASUREMENT_KIND: protein stability index
Answer using only a numeral; do not append any unit.

QUERY: Output protein stability index of G24R
RESULT: 1.8

QUERY: Output protein stability index of S20H
RESULT: 1.76

QUERY: Output protein stability index of H4K
RESULT: 1.56

QUERY: Output protein stability index of A2L
RESULT: 2.19

QUERY: Output protein stability index of R17V
RESULT: 1.49

QUERY: Output protein stability index of N7Y
RESULT: 2.9

QUERY: Output protein stability index of G16H
RESULT: 1.9

QUERY: Output protein stability index of R13P
RESULT: 3.18

QUERY: Output protein stability index of H5N
RESULT: 2.5

QUERY: Output protein stability index of R1E
RESULT: 2.53

QUERY: Output protein stability index of V19P
RESULT: 1.98

QUERY: Output protein stability index of H5C
RESULT: 1.93

QUERY: Output protein stability index of A2K
RESULT: 1.54

QUERY: Output protein stability index of G22L
RESULT: 2.48

QUERY: Output protein stability index of G16Q
RESULT: 1.81

QUERY: Output protein stability index of L14R
RESULT: 2.39

QUERY: Output protein stability index of G3S
RESULT: 1.57

QUERY: Output protein stability index of A2N
RESULT: 2.11

QUERY: Output protein stability index of T11L
RESULT: 1.7

QUERY: Output protein stability index of A2I
RESULT: 2.15

QUERY: Output protein stability index of R17N
RESULT: 1.31

QUERY: Output protein stability index of G22F
RESULT: 1.55

QUERY: Output protein stability index of G16N
RESULT: 2.51

QUERY: Output protein stability index of G24Y
RESULT: 1.57

QUERY: Output protein stability index of C15Y
RESULT: 1.42

QUERY: Output protein stability index of R21Y
RESULT: 1.85
